Measured quantity: melting point

Below, each entry is followed by its recorded melting point result.
FC(F)(F)c1nc(-c2ccc(-c3cccc(N4CCOCC4)n3)cc2)no1 | 100 to 105 °C
CC1(C)COC(c2ccc(-c3noc(C(F)(F)F)n3)cc2)NC1=O (stereo not shown) | 187.3 to 189 °C
Nc1cc(-c2ccc(-c3noc(C(F)(F)F)n3)cc2)ccn1 | 195 to 200 °C
FC(F)(F)c1nc(-c2ccc(-c3ccc(Cl)nc3)cc2)no1 | 140 to 145 °C
O=C(Nc1cc(-c2ccc(-c3noc(C(F)(F)F)n3)cc2)ccn1)C(F)(F)F | 230 to 235 °C
Fc1cc(-c2ccc(-c3noc(C(F)(F)F)n3)cc2)ccn1 | 105 to 110 °C
Nc1ccc(-c2ccc(-c3noc(C(F)(F)F)n3)cc2)cn1 | 155 to 160 °C
O=C(Nc1cc(-c2ccc(-c3noc(C(F)(F)F)n3)cc2)ccn1)C1CC1 | 140 to 145 °C
Cl.FC(F)(F)c1nc(-c2ccc(C3CCCN3)cc2)no1 (stereo not shown) | 154.4 to 158.5 °C
CCNc1ccc(-c2ccc(-c3noc(C(F)(F)F)n3)cc2)cn1 | 120 to 125 °C

Could you now look at the following molecule, please?
// CN(C)C(=O)C(=O)NC1CSC(c2ccc(-c3noc(C(F)(F)F)n3)c(F)c2)=N1 (stereo not shown) : melting point value = 120 to 165 °C

###

Measured quantity: melting point

FC(F)(F)c1nc(-c2ccc(C3=NCCO3)cc2)no1 [Compound A-3] | 120 to 125 °C
Cc1ccccc1C(=O)NC1CSC(c2ccc(-c3noc(C(F)(F)F)n3)c(F)c2)=N1 (centres unmarked) [Compound A-23] | 144 to 155 °C
Cc1cc(C)n(-c2ccc(-c3noc(C(F)(F)F)n3)cc2)n1 [Compound E-1] | 109 to 111 °C
CC1COC(c2ccc(-c3noc(C(F)(F)F)n3)cc2)=N1 (centres unmarked) [Compound A-1] | 77 to 80 °C
FC(F)(F)c1nc(-c2ccc(C3CC(c4ccccc4)=NO3)cc2)no1 (centres unmarked) [Compound A-50] | 139 to 142 °C

Recorded result, FC(F)(F)c1nc(-c2ccc(-c3ccc(NC4CC4)nc3)cc2)no1 [Compound D-21] , melting point: 135 to 140 °C

Entry CCNc1cc(-c2ccc(-c3noc(C(F)(F)F)n3)cc2)ccn1 [Compound D-9] , melting point reported as 130 to 135 °C

// recorded melting point for CCNc1cccc(-c2ccc(-c3noc(C(F)(F)F)n3)cc2)n1 [Compound D-8] : 120 to 125 °C

Noted for Cc1csc(-c2ccc(-c3noc(C(F)(F)F)n3)cc2)n1 [Compound C-8] : its melting point reads 89 to 90 °C

Value of melting point reported for the molecule FC(F)(F)c1nc(-c2ccc(-c3cc(C4CC4)no3)cc2)no1 [Compound C-10] is 143 to 146 °C

Please fill in: melting point reported for FC(F)(F)c1nc(-c2ccc(-c3nc(-c4cccnc4)cs3)cc2)no1 [Compound C-12] = 142 to 143 °C

Noted for FC(F)(F)c1nc(-c2ccc(-c3nc(CCl)cs3)cc2)no1 [Compound C-9] : its melting point reads 91 to 92 °C

###

Measured quantity: melting point

CCNC(=O)Nc1cccc(-c2ccc(-c3noc(C(F)(F)F)n3)cc2)n1 | 200 to 205 °C
FC(F)(F)c1nc(-c2ccc(C3CC(C4CC4)=NO3)cc2)no1 (centres unmarked) | 109 to 112 °C

Lookup result for "O=C(Nc1cccc(-c2ccc(-c3noc(C(F)(F)F)n3)cc2)n1)C(F)(F)F" ; measured melting point: 125 to 130 °C

Value of melting point reported for the compound "Fc1cccc(-c2ccc(-c3noc(C(F)(F)F)n3)cc2)n1" is 75 to 80 °C

# melting point (compound: FC(F)(F)c1nc(-c2ccc(C3CC(C4CCCCC4)=NO3)cc2)no1 (centres unmarked) ) is 79 to 82 °C
